target: 5-HT transporter (Rattus norvegicus, UniProt P31652); construct: synaptosomes of rat brain areas are freshly isolated; from tissue; host or cells: rat brain synaptosomes (P2 fraction) from marrow and pons; experiment: Inhibition of 5-HT uptake in rat brain synaptosomes; assay type: biochemical; conditions: read-out: Uptake 5-HT, % inhibition; Table III; rat, 1 μM
Sequence (P31652 whole entry): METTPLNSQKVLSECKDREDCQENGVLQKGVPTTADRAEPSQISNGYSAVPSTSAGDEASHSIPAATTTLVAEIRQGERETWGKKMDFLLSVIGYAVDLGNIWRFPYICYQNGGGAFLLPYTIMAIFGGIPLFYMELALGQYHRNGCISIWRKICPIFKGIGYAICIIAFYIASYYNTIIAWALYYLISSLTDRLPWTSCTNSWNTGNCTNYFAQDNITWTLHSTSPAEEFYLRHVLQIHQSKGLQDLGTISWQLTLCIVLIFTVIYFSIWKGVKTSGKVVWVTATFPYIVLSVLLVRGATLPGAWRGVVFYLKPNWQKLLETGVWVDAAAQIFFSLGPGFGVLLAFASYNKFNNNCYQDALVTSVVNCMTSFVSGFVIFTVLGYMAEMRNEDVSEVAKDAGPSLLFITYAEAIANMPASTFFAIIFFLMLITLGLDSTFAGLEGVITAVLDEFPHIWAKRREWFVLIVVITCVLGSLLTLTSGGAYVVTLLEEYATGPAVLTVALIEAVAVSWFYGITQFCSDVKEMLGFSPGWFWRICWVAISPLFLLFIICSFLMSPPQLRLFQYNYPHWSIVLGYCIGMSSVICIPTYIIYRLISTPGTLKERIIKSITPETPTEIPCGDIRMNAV
measured attribute: inhibition at 1 µM (%)
State the answer as a number, implicitly in %.

Asked: Return inhibition at 1 µM for the following molecule: CC(C)=CCN1C(=O)C(C(C)C)NC12CCN(C(=O)c1ccncc1)CC2 (stereo not shown)
Given back: 56

Asked: Look up inhibition at 1 µM of CC(C)C1NC2(CCN(C(=O)c3ccccc3C(=O)OCc3ccccc3)CC2)N(Cc2ccccc2)C1=O (stereo not shown) and report it.
Given back: 48

Asked: Give the reported inhibition at 1 µM for this molecule. CSCCC1NC2(CCN(C(=O)c3cccc(F)c3)CC2)N(C)C1=O (stereo not shown)
Given back: 41

Asked: Specify inhibition at 1 µM for CSCCC1NC2(CCN(C(=O)c3ccccn3)CC2)N(Cc2ccc(F)cc2)C1=O (stereo not shown) and stop.
Given back: 50

* * *

tested on: NA transporter; assay: Inhibition of noradrenaline uptake in rat brain synaptosomes; assay type: biochemical; settings: Table III
Exercise: for every item that follows, state its recorded Uptake (NA), rat, 10 μM, % inhibition.
Write the number in % without appending the unit.

Asked: Give the reported value of Uptake (NA), rat, 10 μM, % inhibition for this record: N#Cc1ccccc1CN1C(=O)CNC12CCN(C(=O)C=Cc1ccccc1Cl)CC2 [Example 89]
Given back: 41

Asked: Please report Uptake (NA), rat, 10 μM, % inhibition for the following compound: CC(C)CC1NC2(CCN(C(=O)c3cccc(N(C)C)c3)CC2)N(Cc2ccccc2C#N)C1=O (centres unmarked) [Example 111]
Given back: 38

Asked: State its Uptake (NA), rat, 10 μM, % inhibition for this compound: CCOC(=O)C(C)(C)C(=O)N1CCC2(CC1)NC(CCSC)C(=O)N2Cc1ccccc1[N+](=O)[O-] (centres unmarked) [Example 331]
Given back: 38

Asked: Please give the documented Uptake (NA), rat, 10 μM, % inhibition of CSCCC1NC2(CCN(C(=O)c3cccnc3Oc3ccccc3)CC2)N(Cc2ccccc2[N+](=O)[O-])C1=O (centres unmarked) [Example 298]
Given back: 30

Asked: Identify the reported Uptake (NA), rat, 10 μM, % inhibition for the following entry. Cc1onc(-c2c(F)cccc2Cl)c1C(=O)N1CCC2(CC1)NC(=O)C(Cc1ccccc1)N2 (centres unmarked) [Example 115]
Given back: 34

* * *

target: 5-HT transporter (Rattus norvegicus, UniProt P31652); construct: synaptosomes of rat brain areas are freshly isolated; from tissue; host or cells: rat brain synaptosomes (P2 fraction) from marrow and pons; test: Inhibition of 5-HT uptake in rat brain synaptosomes; format: biochemical; conditions: read-out: Uptake 5-HT, % inhibition; Table II; rat, 1 μM
Structures can show the parent of a compound that is named as a salt.
measured attribute: inhibition at 1 µM (%)
A number alone suffices; assume %.

Asked: Please indicate inhibition at 1 µM recorded for Cl.O=C(c1cccc(F)c1F)N1CCC2(CC1)N[C@@H](Cc1ccccc1)C(=O)N2Cc1ccccc1 [Example 54, hydrochloride]
Given back: 81

Asked: Find the measured inhibition at 1 µM of CCC(CC)C(=O)N1CCC2(CC1)NC(CCSC)C(=O)N2Cc1ccccc1 (stereo not drawn) [Example 33, hydrochloride] and report it.
Given back: 49

Asked: Give the reported inhibition at 1 µM for this compound. Cl.O=C(c1ccco1)N1CCC2(CC1)N[C@@H](Cc1ccccc1)C(=O)N2Cc1ccccc1 [Example 60, hydrochloride]
Given back: 80

* * *

I'd be grateful if you could share measured inhibition at 1 µM for these entries.
target: 5-HT transporter (Rattus norvegicus); construct: synaptosomes of rat brain areas are freshly isolated; from tissue; host or cells: rat brain synaptosomes (P2 fraction) from marrow and pons; assay: Inhibition of 5-HT uptake in rat brain synaptosomes; assay type: biochemical; settings: read-out: Uptake 5-HT, % inhibition; Table III; rat, 1 μM
Include the unit right after the number.

Asked: Look up and report inhibition at 1 µM, with 5-HT transporter (Rattus norvegicus) as system, for C#CCN1C(=O)C(CCSC)NC12CCN(C(=O)CCCOc1ccccc1)CC2 (centres unmarked) [Example 222]
Given back: 60%

Asked: Specify inhibition at 1 µM for CCCCN1C(=O)C(CCSC)NC12CCN(C(=O)c1cc(OC)cc(OC)c1)CC2 (centres unmarked) [Example 229] , system 5-HT transporter (Rattus norvegicus).
Given back: 36%

Asked: Give measured inhibition at 1 µM for CC(C)C1NC2(CCN(C(=O)C=Cc3ccccc3Cl)CC2)N(CCOc2ccccc2)C1=O (centres unmarked) [Example 225] (5-HT transporter (Rattus norvegicus)).
Given back: 32%

Asked: Write inhibition at 1 µM of CC(C)CC1NC2(CCN(C(=O)c3cccnc3Cl)CC2)N(Cc2ccc(F)cc2)C1=O (centres unmarked) [Example 118] ; system used: 5-HT transporter (Rattus norvegicus)
Given back: 38%

Asked: Tell me its inhibition at 1 µM on 5-HT transporter (Rattus norvegicus): CCCCN1C(=O)C(Cc2ccccc2)NC12CCN(C(=O)c1cc(C(C)(C)C)nn1C)CC2 (centres unmarked) [Example 249]
Given back: 55%

* * *

biological target: 5-HT transporter (Rattus norvegicus); construct: synaptosomes of rat brain areas are freshly isolated; from tissue; host or cells: rat brain synaptosomes (P2 fraction) from marrow and pons; experiment: Inhibition of 5-HT uptake in rat brain synaptosomes; assay type: biochemical; settings: read-out: Uptake 5-HT, % inhibition; Table III; rat, 1 μM
measured attribute: inhibition at 1 µM (%)
Dear colleague, please return just the value in %, with no unit written.

Asked: Send back 5-HT transporter (Rattus norvegicus) inhibition at 1 µM of CSCCC1NC2(CCN(C(=O)c3cccc(OC(F)(F)F)c3)CC2)N(Cc2cccc(C#N)c2)C1=O (stereo not shown) [Example 200] only.
Given back: 45

Asked: Provide inhibition at 1 µM, tested on 5-HT transporter (Rattus norvegicus), for CSCCC1NC2(CCN(C(=O)c3cccnc3Oc3ccccc3)CC2)N(Cc2ccccc2)C1=O (stereo not shown) [Example 171] .
Given back: 62

Asked: Please report the measured inhibition at 1 µM for O=C(c1ccc2nonc2c1)N1CCC2(CC1)NCC(=O)N2Cc1ccccc1F [Example 304] tested on 5-HT transporter (Rattus norvegicus).
Given back: 34

Asked: Enter measured inhibition at 1 µM, system 5-HT transporter (Rattus norvegicus), for the molecule shown: CCCCC(=O)N1CCC2(CC1)NC(Cc1ccccc1)C(=O)N2CC(=O)OCC (stereo not shown) [Example 299]
Given back: 66

Asked: Specify inhibition at 1 µM for CCSc1ncccc1C(=O)N1CCC2(CC1)NC(Cc1ccccc1)C(=O)N2Cc1ccccc1 (stereo not shown) [Example 145] , system 5-HT transporter (Rattus norvegicus).
Given back: 89

Asked: Would you please give the reported inhibition at 1 µM of COC(=O)c1ccc(CN2C(=O)CNC23CCN(C(=O)Cc2ccccc2)CC3)cc1 [Example 283] with 5-HT transporter (Rattus norvegicus)?
Given back: 51

Asked: For 5-HT transporter (Rattus norvegicus), give inhibition at 1 µM of the listed molecule: COC(=O)c1ccc(CN2C(=O)CNC23CCN(C(=O)C2CCCC2)CC3)cc1 [Example 269]
Given back: 40

Asked: Report inhibition at 1 µM on 5-HT transporter (Rattus norvegicus) for this entry: Cc1ccc(C(=O)N2CCC3(CC2)NC(CC(C)C)C(=O)N3Cc2c(Cl)cccc2Cl)c(F)c1F (stereo not shown) [Example 324]
Given back: 31

Asked: Lab note: 5-HT transporter (Rattus norvegicus) assay, enter inhibition at 1 µM for CCCCN1C(=O)C(CCSC)NC12CCN(C(=O)c1cc(C)oc1C)CC2 (stereo not shown) [Example 219] here
Given back: 30

Asked: Using 5-HT transporter (Rattus norvegicus) as the test system, report measured inhibition at 1 µM of CCOc1ccccc1C(=O)N1CCC2(CC1)NCC(=O)N2Cc1ccccc1F [Example 280] .
Given back: 60

* * *

Exercise: state measured inhibition at 1 µM for each of the compounds provided.
molecular target: 5-HT transporter (Rattus norvegicus, UniProt P31652); construct: synaptosomes of rat brain areas are freshly isolated; from tissue; host or cells: rat brain synaptosomes (P2 fraction) from marrow and pons; assay: Inhibition of 5-HT uptake in rat brain synaptosomes; format: biochemical; details: read-out: Uptake 5-HT, % inhibition; Table III; rat, 1 μM

Asked: Give inhibition at 1 µM for CSCCC1NC2(CCN(C(=O)c3c(Cl)ccc(C)c3F)CC2)N(Cc2ccccc2)C1=O (stereo not drawn) tested on 5-HT transporter (Rattus norvegicus, UniProt P31652).
Given back: 54%

Asked: Print 5-HT transporter (Rattus norvegicus, UniProt P31652) inhibition at 1 µM for Cc1nnsc1C(=O)N1CCC2(CC1)NC(Cc1ccccc1)C(=O)N2Cc1ccccc1 (stereo not drawn) .
Given back: 79%

Asked: Report inhibition at 1 µM on 5-HT transporter (Rattus norvegicus, UniProt P31652) for this entry: C#CCN1C(=O)C(Cc2ccccc2)NC12CCN(C(=O)c1c(F)cccc1Cl)CC2 (stereo not drawn)
Given back: 51%
